Target: NHERF4_1, Q86UT5-2
Sequence (Q86UT5 other isoform, or with tags, fused parts or gaps): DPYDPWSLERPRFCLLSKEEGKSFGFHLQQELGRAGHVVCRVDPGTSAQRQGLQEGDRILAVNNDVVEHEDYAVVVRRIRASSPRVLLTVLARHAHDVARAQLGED
Test: holdup assay
Set-up: key: below the threshold = too weak to quantify, mostly under pKd 3.1 to 4
Conditions: plain residues with an end cap or a label only (N-terminal biotin on a linker: ado-ado)
OBSERVATION TYPE: pKd

Below, each entry is followed by its recorded pKd result.
| BINDER | pKd |
| --- | --- |
| NNMAFETTHF [SLC5A12, Q1EHB4] | 4.35 |
| VKQYADVEGF [HNRNPK, P61978;P61978-2] | 3.99 |
| GSQSQVETEA [FKBP4, Q02790] | 3.97 |
| KLQNPNQSVV [TYRP1, P17643] | below the threshold |
| DFKHTKSFII [JAM2, P57087] | below the threshold |

Field: pKd. Fill in for each record below.
1. MQILSKPEFI [NPSR1, Q6W5P4]
2. GQNMTVSVVI [PRLHR, P49683]
3. HDDYFYHDEL [RCN2, Q14257]
4. FHSIKQSTAV [CRHR1, P34998]
5. HYPASPDSWV [CTNND2, Q9UQB3]

### Response
[3.62, 3.64, 4.1, 3.81, "below the threshold"]

Field: pKd. Fill in for each record below.
1. GNDPDRGTSI [GRID2, O43424]
2. QKASRNESTF [POLR1D, P0DPB6]
3. SAGADSETHC [SLCO1B1, Q9Y6L6]
4. PEKVSNTTVV [IGSF5, Q9NSI5]

### Response
1: below the threshold; 2: below the threshold; 3: below the threshold; 4: below the threshold

Field: pKd. Fill in for each record below.
1. QLGSPTADLA [SIPA1, Q96FS4]
2. NSTHNLKDYV [CLDN20, P56880]

### Response
below the threshold
3.69
